- target_entity: sodium iodide symporter (NIS), iodide uptake in FRTL5 cells (Rattus norvegicus)
- Construct: endogenous in cells; host or cells: FRTL5 (rat thyroid-derived cells)
- assay: Inhibition of iodide uptake in FRTL5 cells, non radioactive arsenic/cerium assay
- Assay type: cell-based
- test_context: Table 4, variations at X, R3, R4; averaged from three or four independent experiments; NaI 10 μM, 1 hour, 20°C; read-out: IC50 (μM), inhibitory activity against iodide uptake in FRTL5 cells
Recorded IC50 for the following compounds
quantity_measured: IC50 (µM)

compound: COc1ccc(COC(=O)C2=C(C)N(C)C(=O)NC2c2ccccc2)cc1 (stereo not drawn) [Compound 50]
recorded_number: 0.075
--
compound: COc1ccc(COC(=O)C2=C(C)N(C)C(=O)N(C)C2c2ccccc2)cc1 (stereo not drawn) [Compound 51]
recorded_number: 0.065
--
compound: COc1ccc(COC(=O)C2=C(C)NC(=S)NC2c2ccccc2)cc1 (stereo not drawn) [Compound 52]
recorded_number: 0.095

====

Collected melting point values appear next to each entry.
quantity_measured: melting point

molecule: CC1=C(C(=O)OCc2ccc(Cl)cc2)C(c2ccccc2)NC(=O)N1 (centres unmarked) [Compound 34]
quantity_measured: melting point
result: 216 to 217 °C
//
molecule: COc1ccc(COC(=O)C2=C(C)NC(=O)NC2c2ccco2)cc1 (centres unmarked) [Compound 27]
quantity_measured: melting point
result: 158 to 159 °C
//
molecule: COc1ccc(COC(=O)C2=C(C)N(C)C(=O)NC2c2ccccc2)cc1 (centres unmarked) [Compound 50]
quantity_measured: melting point
result: 134 to 136 °C
//
molecule: CC1=C(C(=O)OCc2ccc3c(c2)OCO3)C(c2ccoc2)NC(=O)N1 (centres unmarked) [Compound 62]
quantity_measured: melting point
result: 172 to 173 °C
//
molecule: COc1ccc(COC(=O)C2=C(C)NC(=O)NC2c2cccs2)cc1 (centres unmarked) [Compound 30]
quantity_measured: melting point
result: 152 to 154 °C

====

# IC50 values compiled below
- target_entity: sodium iodide symporter (NIS), iodide uptake in FRTL5 cells (Rattus norvegicus, UniProt Q63008)
- Construct: endogenous in cells; host or cells: FRTL5 (rat thyroid-derived cells)
- Sequence (Q63008 whole entry): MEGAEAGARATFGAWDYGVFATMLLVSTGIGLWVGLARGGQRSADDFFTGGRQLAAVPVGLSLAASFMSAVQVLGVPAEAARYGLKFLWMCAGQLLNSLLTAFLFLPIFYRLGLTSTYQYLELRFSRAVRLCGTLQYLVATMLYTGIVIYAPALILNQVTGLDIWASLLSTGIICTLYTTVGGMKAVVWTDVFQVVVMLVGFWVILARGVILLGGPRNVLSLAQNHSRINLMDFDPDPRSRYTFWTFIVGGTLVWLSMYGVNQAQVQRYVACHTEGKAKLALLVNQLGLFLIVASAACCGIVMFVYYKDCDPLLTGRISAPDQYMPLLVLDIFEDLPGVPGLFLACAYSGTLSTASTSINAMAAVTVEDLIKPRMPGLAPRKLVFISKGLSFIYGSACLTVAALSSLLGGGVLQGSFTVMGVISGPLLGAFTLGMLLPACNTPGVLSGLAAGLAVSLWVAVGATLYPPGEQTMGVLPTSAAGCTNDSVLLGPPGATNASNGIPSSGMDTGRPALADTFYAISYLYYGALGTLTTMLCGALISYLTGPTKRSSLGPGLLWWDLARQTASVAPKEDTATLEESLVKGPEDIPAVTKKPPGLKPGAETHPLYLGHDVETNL
- assay: Inhibition of iodide uptake in FRTL5 cells, non radioactive arsenic/cerium assay
- Type: cell-based
- test_context: Table 2, variations at R5; averaged from three or four independent experiments; NaI 10 μM, 1 hour, 20°C; read-out: IC50 (μM), inhibitory activity against iodide uptake in FRTL5 cells

compound: CC1=C(C(=O)OCc2ccccc2C)C(c2ccccc2)NC(=O)N1 (stereo not shown) [Compound 36]
IC50: 0.25 µM
--
compound: CC1=C(C(=O)OCc2ccccc2Cl)C(c2ccccc2)NC(=O)N1 (stereo not shown) [Compound 33]
IC50: 0.35 µM
--
compound: CC1=C(C(=O)OCc2ccccc2)C(c2ccccc2)NC(=O)N1 (stereo not shown) [Compound 32]
IC50: 0.19 µM
--
compound: CC1=C(C(=O)OCc2ccc3c(c2)OCO3)C(c2ccccc2)NC(=O)N1 (stereo not shown) [Compound 38]
IC50: 0.08 µM
--
compound: CC1=C(C(=O)OCc2ccc(Cl)cc2)C(c2ccccc2)NC(=O)N1 (stereo not shown) [Compound 34]
IC50: 0.3 µM
--
compound: CC1=C(C(=O)OCc2ccc(F)cc2)C(c2ccccc2)NC(=O)N1 (stereo not shown) [Compound 35]
IC50: 0.2 µM
--
compound: COc1cccc(COC(=O)C2=C(C)NC(=O)NC2c2ccccc2)c1 (stereo not shown) [Compound 37]
IC50: 0.05 µM
